Data provenance: patent US20230416224A1

# ASSAY INFO: Particle size distribution of ORZY-05 by Malvern Mastersizer 3000
# Type: physicochemical
# ASSAY SETUP: ORZY-05 particles, Malvern Mastersizer 3000, volume distribution
met means recorded D50 is 20 μm or above; not met means it is below 20 μm.

# COMPOUND, CLASS
data = [
    ("O=C(O)CC(O)(CC(=O)O)C(=O)O.[O-][n+]1cccc(/C(Cl)=N/OC[C@H](O)CN2CCCCC2)c1 [compound 2002, arimoclomol citrate]", "not met"),
    ("O=C(O)CC(O)(CC(=O)O)C(=O)O.[O-][n+]1cccc(/C(Cl)=N/OC[C@H](O)CN2CCCCC2)c1 [compound 1001, arimoclomol citrate]", "met"),
    ("O=C(O)CC(O)(CC(=O)O)C(=O)O.[O-][n+]1cccc(/C(Cl)=N/OC[C@H](O)CN2CCCCC2)c1 [compound 2003, arimoclomol citrate]", "not met"),
    ("O=C(O)CC(O)(CC(=O)O)C(=O)O.[O-][n+]1cccc(/C(Cl)=N/OC[C@H](O)CN2CCCCC2)c1 [compound 2001, arimoclomol citrate]", "met"),
    ("O=C(O)CC(O)(CC(=O)O)C(=O)O.[O-][n+]1cccc(/C(Cl)=N/OC[C@H](O)CN2CCCCC2)c1 [compound 1002, arimoclomol citrate]", "met"),
]
